Test system: Escherichia coli TOP10;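 also: peptides expressed intracellularly from a pBAD plasmid library in pooled LB shake-flask culture, induced with 0.3% L-arabinose, DNA abundance read by NGS, three biological replicates, DESeq2 with apeglm shrinkage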
procedure_details: shrunken log2 fold change of peptide-encoding DNA abundance (4.5 h post-induction vs induction); higher = less antimicrobial activity (less host growth inhibition)
conditions: time post-induction: 4.5 h; library: site-saturation at positions 5, 18, 19, 20
Entries are grouped by shrunken log2 fold change into these classes: Low (below -0.2), Medium (-0.2 to below 0.03), High (0.03 or more)

IN: Category lookup for the sequence RRIRLRPPRLPRPRPRPPKAPRP
OUT: Medium

IN: Note, next up: RRIRLRPPRLPRPRPRPQHMPRP
OUT: Low

IN: Input RRIRQRPPRLPRPRPRPTKSPRP
OUT: Medium

IN: Follow-up entry: RRIRIRPPRLPRPRPRPGDFPRP
OUT: Medium

IN: Follow-up item: RRIRLRPPRLPRPRPRPMQSPRP
OUT: High

IN: Also check RRIRDRPPRLPRPRPRPRFFPRP
OUT: High

IN: Now this one: RRIRWRPPRLPRPRPRPMINPRP
OUT: Low

IN: Next record, please: RRIRGRPPRLPRPRPRPMVHPRP
OUT: Medium

IN: Moving on to the next sequence: RRIRVRPPRLPRPRPRPPVKPRP
OUT: Medium

IN: Then RRIRTRPPRLPRPRPRPFMPPRP ?
OUT: Low

IN: Also, RRIRQRPPRLPRPRPRPEHRPRP please.
OUT: Low

IN: Now this one: RRIRERPPRLPRPRPRPCTPPRP
OUT: Low

IN: Do the same for RRIRPRPPRLPRPRPRPVSYPRP please
OUT: Low

IN: Now try RRIRKRPPRLPRPRPRPGSMPRP .
OUT: High

IN: Let us now turn to RRIRFRPPRLPRPRPRPMRVPRP
OUT: High

IN: Same thing, different sequence: RRIRSRPPRLPRPRPRPMLYPRP
OUT: High

IN: Lookup RRIRKRPPRLPRPRPRPWQAPRP
OUT: Medium

IN: RRIRRRPPRLPRPRPRPKLMPRP ?
OUT: High

IN: Query RRIRLRPPRLPRPRPRPPFTPRP next
OUT: High

IN: Follow-up entry: RRIRIRPPRLPRPRPRPWFWPRP
OUT: Low

IN: Same lookup for RRIRMRPPRLPRPRPRPSCTPRP , please.
OUT: Medium

IN: Likewise for RRIRPRPPRLPRPRPRPPIQPRP ?
OUT: Medium

IN: Another: RRIRIRPPRLPRPRPRPFIGPRP
OUT: Low

IN: Next sequence up: RRIRDRPPRLPRPRPRPKCGPRP
OUT: Medium

IN: Field entry: RRIRCRPPRLPRPRPRPCSWPRP
OUT: Medium

IN: Likewise for RRIRCRPPRLPRPRPRPMMKPRP ?
OUT: Low

IN: Try RRIRMRPPRLPRPRPRPKSEPRP next.
OUT: Medium

IN: Now consider RRIRCRPPRLPRPRPRPIQWPRP and answer again.
OUT: Low

IN: Also RRIRQRPPRLPRPRPRPNCDPRP ?
OUT: Medium

IN: Also need RRIRRRPPRLPRPRPRPAPMPRP , thanks.
OUT: High

IN: What about this sequence? RRIRQRPPRLPRPRPRPCIKPRP
OUT: High

IN: Same again, this time with RRIRGRPPRLPRPRPRPMAVPRP
OUT: High
